conditions: basic group
property.name: pKa
Answer with a bare number; do not write a unit.

Field pKa (entry c1ccc(Nc2ncnc3[nH]ncc23)cc1 ) reads 3.92

Reported pKa ( OC[C@@H]1O[C@H](n2cnc3c2ncn2ccnc32)[C@@H](O)[C@H]1O ) = 4.1

The measured pKa associated with Cc1ccc2cccc(C)c2n1 reads 4.1

Cn1cncc1C[C@H](NC(=O)CC[NH3+])C(=O)[O-] yielded pKa of 7.08

====

So I've got a bunch of molecules here, and I need their pKa values.
details: basic group
No unit in the answer, only the number.

Note to self: pKa recorded for COc1cc(S(C)=O)ccc1-c1nc2ncc(N)cc2[nH]1 (configuration not stated) was 3.9

Item: NCc1cccnc1 | pKa: 8.33

// pKa value for C=CCN(CC=C)CCC[NH+](CC=C)CC=C : 6.96

Quick note, pKa for O=C([O-])CN=C1CCCC1 landed at 8.72

Entry under test: C1CCN(CCC[NH+]2CCCCC2)CC1 . Its pKa was 7.97

Consider Cc1ncc[nH]1 . Its measured pKa is 7.97

CCC1CCCN1C (configuration not stated) yielded pKa of 9.78

====

conditions: basic group
property.name: pKa
The answer should be written as a number, with no unit following it.

Memo: c1c(CN2CCNCC[NH2+]CC2)n[nH]c1CN1CCNCC[NH2+]CC1 , reported pKa: 6.8

Lab note: O=C([O-])c1cc(-c2ccccc2)nnc1NCCN1CCOCC1 gave pKa of 7.07

Field pKa (entry OCCN1CCOCC1 ) reads 7.18

====

details: basic group
property.name: pKa
Please give only the number in your answer, with no unit.

pKa in this record for c1ccc(N2CCCC2)cc1 : 4.3

So, O=[N+]([O-])c1cccc2cn[nH]c12 ? Its pKa was -0.83

// sample O=S(=O)(Nc1ncccn1)c1ccccc1 , its pKa was 0.15

Form field pKa, entry c1cnc2c(c1)ccc1[nH+]cccc12 : 1

pKa recorded for this molecule, CN(CCC[NH3+])CCC[NH3+] , is 6.45

get_value(item= C[NH+](C)c1ccc(/C=C/c2ccncc2)cc1 , readout=pKa) returns 3.42

pKa in this record for Cc1cnc2c(c1)c(C)c(C)c1cc(C)cnc12 : 5.54

Input CC(N)(C(=O)[O-])c1ccccc1 (configuration not stated) . Output pKa: 9

The recorded pKa for entry CC(C)(C)Nc1ccccc1 equals 7.15

// recorded pKa for NC(CCc1ccc([N+](=O)[O-])cc1)C(=O)[O-] (configuration not stated) : 9.1

# pKa of Cc1cc(N)c(O)cc1C = 5.28

pKa reading for Nc1cccc2ccc([N+](=O)[O-])cc12 : 2.83

pKa measured on NCCc1ccncc1 = 9.37

Item: COc1ccc2c(c1)C(O)N(C)C=C2 (configuration not stated) | pKa: 2.15

// recorded pKa for Cc1ccccc1/C(=N\CCCN(C)C)c1cccc2ccccc12 : 8.8

molecule CN(C)CCNC(=O)/C=N/[O-] , pKa observed: 9.43

Form field pKa, entry c1cncc(-c2cccnc2)c1 : 4.6

Looking up COc1cccc(CN2CC(O[Si](C)(C)C)C2)c1 , I see its pKa listed as 7.81

Kindly note the recorded pKa for CCNC(=O)c1ccccn1 , which is 2.4

Input c1ccc(-c2ccco2)nc1 . Output pKa: 4.18

GET /value?item= CCOCCNc1ccc(OC)cc1 &field=pKa returns 4.99

Noted for CC[NH+](CC)CCNc1cc(C)nc(N)n1 : its pKa reads 7.6

# pKa of OCCNc1ccccc1 = 4.09

For this molecule ( CN(C)c1ccc(/N=N/c2cccc[nH+]2)cc1 ), measured pKa is 2

Value of measured pKa for the entry NCCCCCc1ccncc1 : 10.3

For this molecule ( CCN1CC(O[Si](C)(C)C)C1 ), measured pKa is 8.68

The molecule listed as COc1cc(C(N)=O)ccc1-c1nc2c(ncn2C)[nH]1 shows pKa equal to 3.8

Value of measured pKa for the entry CC(=O)n1ccnc1Cc1[nH]cc[nH+]1 : 1.93

# pKa (molecule: COc1ccc2nccc(N)c2c1 ) is 8.94

Form: molecule = CC(=O)Oc1ccccc1C(=O)NCC(=O)O ; pKa = 3.77

Given item C1CCC(C2CCCN2)CC1 (configuration not stated) , the value recorded as its pKa is 10.8

Lab book: pKa of CC(C)(C)C1=CC(=C2C=CC=CC=C2)C=C(C(C)(C)C)C1=O noted as 4.48

response.value for [O-]c1ccc(Cl)cc1CN1CCCCC1 (field: pKa) = 11.8

Recorded pKa (molecule ClCC1CC2CCN1CC2 (configuration not stated) ): 9.68

Noted for CCCCNCCNCCCC : its pKa reads 10.2

The recorded pKa for entry Cc1cccc(N(C)C)c1 equals 5.32

Notebook: CN(CC[NH+](C)C)CC[NH+](C)C , pKa read as 2.57

pKa reported for this molecule ClCCN1CCOCC1 : 6.27

Reported pKa for O=C(O[C@@H]1C[C@H]2CC[C@@H](C1)N2)[C@H](CO)c1ccccc1 was 10.3

response.value for OCCCc1ccncc1 (field: pKa) = 5.9

Measured pKa, COc1ccc2[nH]c3c(C)nccc3c2c1 : 7.09

The value of pKa measured for the molecule Nc1cc(Cl)cc(C[NH3+])c1 turned out to be 3.54

Kindly note the recorded pKa for [NH3+]Cc1ccccn1 , which is 3.1

// pKa value for Cc1cc(-c2cccc[nH+]2)nn1C : -1.6

What the record says about Cc1ncc2c(c1O)C(O)OC2 (configuration not stated) : pKa is 4.3

Kindly note the recorded pKa for NNC(=O)c1cccnc1 , which is 3.27

So for Cc1cc(-c2ccccc2)n[n+](CCN2CCOCC2)c1N , the logged pKa turned out to be 4.84

According to the records, this molecule CC(C)C(C(C)C)N(C)C displays pKa of 10.1

// field: pKa; key: Cc1ccc(C2NCCS2)cc1 (configuration not stated) ; value = 5.35

For this molecule ( Cc1ccccn1 ), measured pKa is 5.98

Short answer for NCc1nc2ccccc2[nH]1 : pKa was 8.02

# pKa (molecule: Cc1cc2nccc(NCCC[NH+](C)C)c2cc1[N+](=O)[O-] ) is 7.38

====

settings: acidic group
// label = Y if pKa is not less than 7, otherwise N

Form field: pKa at least 7? Entry: Oc1cccc(Cl)c1
Y

Given the entry O=C(O)c1ccc(I)o1 , answer whether its pKa meets or surpasses 7.
N

Test whether the compound O=C1CCC(C(=O)O)N1 (configuration not stated) records pKa of 7 or higher.
N

Is pKa at least 7? Consider Cc1cc(NS(=O)(=O)c2ccc(N)cc2)nc(C)n1
Y

Determine whether measured pKa meets or exceeds 7 for Cc1ccc(C(=O)NO)cc1
Y

# bool: pKa of C[NH+](C)CCc1cccc(O)c1 >= 7
Y

Is reported pKa greater than or equal to 7 here: Cc1c(Cn2cc[nH+]c2)n(C)c2ccc(C(=O)O)cc12
N

====

conditions: basic group
property.name: pKa
No unit in the answer, please; the number alone is enough.

Sample Cc1cnnc(C)c1 ; pKa observed: 4.11

Value of pKa reported for the compound [NH3+][C@@H](Cc1c[nH]cn1)C(=O)NCC(=O)[O-] is 5.8

The compound listed as CCCCCCCCCCCCCCN(CC(C)O)CC(O)CC (stereo unspecified) has a reported pKa of 6.1

Recorded result, CCOC(=O)CCN(C)C , pKa: 8.6

Briefly, pKa measured for O=[N+]([O-])c1ccc(/C=C/c2nnnn2-c2ccc([N+](=O)[O-])cc2)cc1 : -3.15

// field: pKa; key: CCN(CC)CCOC(=O)c1ccc2ccccc2c1 ; value = 7.52

In plain terms, CN1C[C@H](C(=O)[O-])C[C@@]2(O)c3cccc4[nH]cc(c34)C[C@H]12 has a documented pKa of 9.17

Entry NCC#CC#CCCC(=O)[O-] — recorded pKa = 8.26

Value of measured pKa for the entry CC[NH+](CC)CCCCCCNc1c2ccc(Cl)cc2nc2ccc(OC)cc12 : 8.12

// sample NC(=O)CN(CCN(CC(N)=O)Cc1ccccc1O)Cc1ccccc1O , its pKa was 6.54

The value of pKa measured for the compound CCC(C)N(C)C (stereo unspecified) turned out to be 10.4

====

details: basic group
Param threshold (8) applies to pKa; output class 1 when value >= threshold, class 0 when value < threshold.

Could you verify whether the entry CCN(CC)CCC[C@@H](C)[C@H]1CC[C@H]2[C@@H]3CC[C@@H]4C[C@H](O)CC[C@]4(C)[C@H]3C[C@H](O)[C@]12C shows pKa of no less than 8?
class 1

Decide: pKa of CN1CCC(NNc2ccccc2)CC1 >= 8?
class 1

Can O=C1[C@@H]2C[C@@H](CN3CCCC[C@@H]23)[C@H]2CCCCN12 be said to have pKa at or above 8?
class 0

Determine whether this compound has pKa no lower than 8: C[C@@H](Cc1ccccc1)N(C)C
class 1

Hi, just wondering whether [O-][n+]1cnc(NCc2ccccc2)c2nc[nH]c21 shows pKa of 8 or higher.
class 0

The values you see were collected from the pKa sets of Baltruschat and Czodrowski (2020).
